For each record, write down the corresponding Activity.
experiment: Induction of H2S release in PBS at pH 7.4 at 100 uM pretreated with L-Cys for 10 mins followed by compound addition and measured after 30 mins by free radical analyzer; format: physicochemical; conditions: buffer, pH 7.4, 0.5 h

# molecule, Activity
measured = [
    ("C[C@]12C=CC(=O)C=C1CC[C@@H]1[C@@H]2[C@@H](O)C[C@@]2(C)[C@H]1C[C@H]1O[C@@H](C3CCCCC3)O[C@]12C(=O)COC(=O)CN=C=S", "~ 2 uM"),
]

Then this molecule:
Check the records and state Activity for CCCC1O[C@@H]2C[C@H]3[C@@H]4CCC5=CC(=O)C=C[C@]5(C)[C@H]4[C@@H](O)C[C@]3(C)[C@]2(C(=O)COC(=O)CN=C=S)O1 (stereo partly drawn)
~ 2 uM
